The reported numbers originate from ChEMBL document CHEMBL1201862.

# Tested on: UACC-62
# assay.notes: NCI tumour cell line growth inhibition, 48 h
Activity calls are given as the source filed them. No stated cut-off is given here; in the data, active = GI50 up to about 1.1 µM and inactive = higher.
Below: a set of entries, each annotated with reported GI50.

Examples with answers:
Qu. Dear colleague, I am looking for the recorded GI50 of the following molecule: CC(NC(=O)C(N)CC(=O)O)NC(=O)N1CCCC1 (stereo not given)
Ans. > 100 µM (inactive)

Qu. Do the same for `COc1nc(N=P(c2ccccc2)(c2ccccc2)c2ccccc2)cc(=O)n1C` please
Ans. > 100 µM (inactive)

Others:
Qu. Dear colleague, I am looking for the recorded GI50 of the following molecule: O=C(Cc1ccccc1)N/N=C(/c1nc2ccc([N+](=O)[O-])cc2nc1O)C(O)c1ccccc1Cl (stereo not given)
Ans. > 100 µM (inactive)

Qu. Do the same for `Sc1ncc(-c2cncc(-c3cnc(S)nc3)n2)cn1` please
Ans. > 100 µM (inactive)

Qu. Do the same for `C=CC(=O)N1C/C(=C\c2ccc(OC)cc2)C(=O)/C(=C/c2ccc(OC)cc2)C1` please
Ans. 1.94 µM (inactive)

###

# Test system: HCT-116
# assay.notes: NCI tumour cell line growth inhibition, 48 h
Calls of active or inactive are those of the source. Cut-off read from the data, not from the text of the source: active = GI50 up to about 1.1 µM and inactive = higher.
experimental.readout: GI50

Examples with answers:
Qu. Dear colleague, I am looking for the recorded GI50 of the following molecule: `Cc1cc2nc(-c3c(F)cccc3F)n(Cc3c(F)cccc3F)c2cc1C`
Ans. 12.1 µM (inactive)

Qu. Do the same for `CCOC(=O)c1cn(CC)c2ccc3c(c2c1=O)S(=O)(=O)C=C3` please
Ans. > 100 µM (inactive)

Qu. Do the same for CC1=CC(=O)CC2(C)CCC(C(C)CC(=O)CC(C)C)CC12 (stereo not drawn) please
Ans. 16.1 µM (inactive)

Now take the following molecule into account.
Qu. Dear colleague, I am looking for the recorded GI50 of the following molecule: CCC1c2[nH]c3ccccc3c2C[C@H]2C(=O)N3CCC[C@H]3C(=O)N12 (stereo partly drawn)
Ans. 60.7 µM (inactive)

###

# System: NCI-H226
# assay.notes: NCI tumour cell line growth inhibition, 48 h
The source made the active and inactive calls. No stated cut-off is given here; in the data, active = GI50 up to about 1.1 µM and inactive = higher.
# valid calls are active, inactive; nothing else

Qu. Give the logged outcome of this assay for the following compound: C[C@@H]1C[C@@H]([C@H](O)CC2CC(=O)NC(=O)C2)C(=O)[C@@H](C)C1 [CYCLOHEXIMIDE]
Ans. active

Qu. Do the same for `c1ccc2c(CNCCCCCCCCCCCCNCc3cccc4ccccc34)cccc2c1` please
Ans. inactive

Qu. Do the same for N/N=C(\C(=O)Nc1ccc([N+](=O)[O-])cc1)C(C1=Nc2cc([N+](=O)[O-])ccc2NC1)[N+](=O)[O-] (centres undefined) please
Ans. inactive

Qu. Do the same for `O=c1c2ccccc2[nH]c2c(Cl)cc(Cl)c(NC3CCCCC3)c12` please
Ans. inactive

Qu. Do the same for Cc1nn(C(=O)c2ccncc2)c2c1C(c1cccc([N+](=O)[O-])c1)SC(=N)N2 (centres undefined) please
Ans. inactive

Qu. Do the same for `CC(=O)Oc1cc(C)c(OC(C)=O)c2c1[C@H]1CC[C@]3(C)[C@@H](OC(C)=O)CC[C@H]3[C@@H]1CC2` please
Ans. inactive

Qu. Do the same for C=CCNC(=O)N(CCC)CCCC(NC(C)=O)C(=O)NCc1ccccc1 (centres undefined) please
Ans. inactive

Qu. Do the same for `CCN(CC)CCO[Si](OCCN(CC)CC)(OCCN(CC)CC)OCCN(CC)CC` please
Ans. inactive

Now for a further compound.
Qu. Give the logged outcome of this assay for the following compound: `COC(=O)N/N=C(/CCC(=O)Nc1ccc(C)c(C)c1)CC(=O)C(C)(C)C`
Ans. inactive

###

# Test system: DLD-1
# assay.notes: NCI tumour cell line growth inhibition, 48 h
Active and inactive are the calls of the source. No stated cut-off is given here; in the data, active = GI50 up to about 1.1 µM and inactive = higher.
experimental.readout: GI50

Examples with answers:
Qu. Dear colleague, I am looking for the recorded GI50 of the following molecule: COC1(OC)CC2C(=O)N(Cc3ccccc3)C1C(S(=O)(=O)c1ccccc1)C2S(=O)(=O)c1ccccc1 (configuration not stated)
Ans. 3.52 µM (inactive)

Qu. Do the same for CC1CC(c2ccccc2)=Nc2ccccc2S1 (configuration not stated) please
Ans. > 100 µM (inactive)

Qu. Do the same for COc1ccc2c(c1)C(=O)C1CC(=O)CCC21 (configuration not stated) please
Ans. > 100 µM (inactive)

Qu. Do the same for CCOC(=O)C1=C(C)N(c2ccc(C)cc2)C2=C(C(=O)N(c3ccccc3)C2c2ccccc2)C1c1ccccc1 (configuration not stated) please
Ans. 12.3 µM (inactive)

Others:
Qu. Dear colleague, I am looking for the recorded GI50 of the following molecule: COC(=O)C12C3C4C1C1C2C3C41C(=O)O (configuration not stated)
Ans. > 100 µM (inactive)

Qu. Do the same for `COc1ccc(Cc2c3cc(O)c([O-])cc3cc[n+]2C)cc1` please
Ans. 10.6 µM (inactive)

Qu. Do the same for O=C1C2C=CC(n3[nH]c(=O)n(Cc4ccccc4)c3=O)CC2C(=O)N1c1cccc(Cl)c1 (configuration not stated) please
Ans. > 100 µM (inactive)

###

# System: IGROV-1
# assay.notes: NCI tumour cell line growth inhibition, 48 h
Calls of active or inactive are those of the source. Rule as the data show it: active = GI50 up to about 1.1 µM and inactive = higher.
Below: a set of entries, each annotated with reported GI50.

Qu. Dear colleague, I am looking for the recorded GI50 of the following compound: `CC(=O)N1[C@H](C(=O)O)CS[C@H]1c1ccc(F)cc1`
Ans. > 100 µM (inactive)

Qu. Do the same for C=CCNC(=O)N(CCC)CCCC(NC(C)=O)C(=O)NCc1ccccc1 (stereo not drawn) please
Ans. > 100 µM (inactive)

Qu. Do the same for COc1cccc(C2c3cc4c(cc3OC(N3CCOCC3)C2C)OCO4)c1 (stereo not drawn) please
Ans. 15 µM (inactive)

Qu. Do the same for `O=C(SCc1cccc2ccccc12)c1ccc(Cl)cc1` please
Ans. > 100 µM (inactive)

Qu. Do the same for C=C1C(=O)OC2C1CC(O)/C(C)=C\CCC1(C)OC21 (stereo not drawn) please
Ans. 32.5 µM (inactive)

Others:
Qu. Dear colleague, I am looking for the recorded GI50 of the following compound: `CCCCOC(=O)CNC(=O)OC/C=C/C#CC#C/C=C/COC(=O)NCC(=O)OCCCC`
Ans. > 10 µM (inactive)

Qu. Do the same for CC1(C)C2CCC(O)(C2)C1N (stereo not drawn) please
Ans. > 100 µM (inactive)

###

# Test system: A549
# assay.notes: NCI tumour cell line growth inhibition, 48 h
Active and inactive are the calls of the source. Cut-off read from the data, not from the text of the source: active = GI50 up to about 1.1 µM and inactive = higher.
Below: a set of entries, each annotated with reported GI50.

Qu. Dear colleague, I am looking for the recorded GI50 of the following compound: CC(C)(Cl)C(Br)CC/C(=C/CCl)CBr.CC(C)(Cl)C(Br)CC/C(=C\CCl)CBr (configuration not stated)
Ans. 14.4 µM (inactive)

Qu. Do the same for `COc1cc(C(=O)Nc2nnc(S(N)(=O)=O)s2)cc(OC)c1OC` please
Ans. > 100 µM (inactive)

Qu. Do the same for `COC(=O)Nc1nc2cc(S(=O)(=O)Nc3ccccn3)ccc2[nH]1` please
Ans. 80.7 µM (inactive)

Others:
Qu. Dear colleague, I am looking for the recorded GI50 of the following compound: `CCCCOC(=O)CNC(=O)OC/C=C/C#CC#C/C=C/COC(=O)NCC(=O)OCCCC`
Ans. > 10 µM (inactive)

Qu. Do the same for N/N=C(\C(=O)Nc1ccc([N+](=O)[O-])cc1)C(C1=Nc2cc([N+](=O)[O-])ccc2NC1)[N+](=O)[O-] (configuration not stated) please
Ans. 55.8 µM (inactive)

Qu. Do the same for `Cc1cc(CN2CCCCC2)c(O)c(CN2CCCCC2)c1` please
Ans. > 100 µM (inactive)

Qu. Do the same for `C/C(=N\O)c1cccc(Nc2c3ccccc3nc3occc23)c1` please
Ans. 4.93 µM (inactive)

Qu. Do the same for CCOC(=O)CCC1(C(=O)OCC)CCCCC1=O (configuration not stated) please
Ans. > 100 µM (inactive)

Qu. Do the same for COc1cccc(C2c3cc4c(cc3OC(N3CCOCC3)C2C)OCO4)c1 (configuration not stated) please
Ans. 12.9 µM (inactive)

Qu. Do the same for `CC(/C=N\NC(=S)N1CCCCC1)=N/NC(=S)N1CCCCC1` please
Ans. 0.692 µM (active)

Qu. Do the same for `O=C(C(=C(I)I)c1ccccc1)c1ccccc1` please
Ans. 36.9 µM (inactive)

Qu. Do the same for `C[C@H](NS(=O)(=O)c1ccc(NC(=O)c2ccccc2)cc1)C(=O)O` please
Ans. > 100 µM (inactive)

Qu. Do the same for O=c1c2ccccc2nc(-c2cccc(Cl)c2)n1NCC1(O)OCC(O)C(O)C1O (configuration not stated) please
Ans. > 100 µM (inactive)

Qu. Do the same for CC1=NN(c2ccc(S(=O)(=O)O)cc2)C2(C1)C(Cl)C(=O)N2c1nc2ccccc2s1 (configuration not stated) please
Ans. > 100 µM (inactive)

Qu. Do the same for `COC(=O)CCn1cnc2c(SC)ncnc21` please
Ans. > 100 µM (inactive)
